Sourced from ChEMBL document CHEMBL1147228

# Test protocol: Antiandrogenic activity assessed as inhibition of testosterone 5alpha reductase at 100 ug/mL
# Parameters: scale not given: the % may be the effect or the level left
Measurement type: Activity (%)
Your answer is read as %, so omit the unit and give the number.

Challenge: Name the recorded Activity of the compound listed here: C/C(=C\C(O)C1OC1(C)C)[C@H]1CC[C@]2(C)[C@@H]1C[C@@H](O)[C@@H]1[C@@]3(C)CCC(=O)C(C)(C)[C@@H]3CC[C@]12C (stereo not given in full)
Response given: 43.1

Challenge: Name the recorded Activity of the compound listed here: C=C(C)C(O)C(O)/C=C(\C)[C@H]1CC[C@]2(C)[C@@H]1C[C@@H](O)[C@@H]1[C@]34CC[C@](O)(OC3)C(C)(C)[C@@H]4CC[C@]12C (stereo not given in full)
Response given: 18

Challenge: Name the recorded Activity of the compound listed here: C/C(=C\C(O)C(O)C(C)(C)O)[C@H]1CC[C@]2(C)[C@@H]1C[C@@H](O)[C@@H]1[C@]34CC[C@](O)(OC3)C(C)(C)[C@@H]4CC[C@]12C (stereo not given in full)
Response given: -2.09

Challenge: Name the recorded Activity of the compound listed here: C/C(=C\C(O)C1OC1(C)C)[C@H]1CC[C@]2(C)[C@@H]1C[C@@H](O)[C@@H]1[C@]34CC[C@](O)(OC3)C(C)(C)[C@@H]4CC[C@]12C (stereo not given in full)
Response given: 15.1

Challenge: Name the recorded Activity of the compound listed here: COC(C)(C)C(O)C(O)/C=C(\C)[C@H]1CC[C@]2(C)[C@@H]1C[C@@H](O)[C@@H]1[C@]34CC[C@](O)(OC3)C(C)(C)[C@@H]4CC[C@]12C (stereo not given in full)
Response given: 19
